Reference source: ChEMBL document CHEMBL3860101

- target-or-system: BDNF/NT-3 growth factors receptor (Homo sapiens, UniProt Q16620)
- Sequence (Q16620 whole entry): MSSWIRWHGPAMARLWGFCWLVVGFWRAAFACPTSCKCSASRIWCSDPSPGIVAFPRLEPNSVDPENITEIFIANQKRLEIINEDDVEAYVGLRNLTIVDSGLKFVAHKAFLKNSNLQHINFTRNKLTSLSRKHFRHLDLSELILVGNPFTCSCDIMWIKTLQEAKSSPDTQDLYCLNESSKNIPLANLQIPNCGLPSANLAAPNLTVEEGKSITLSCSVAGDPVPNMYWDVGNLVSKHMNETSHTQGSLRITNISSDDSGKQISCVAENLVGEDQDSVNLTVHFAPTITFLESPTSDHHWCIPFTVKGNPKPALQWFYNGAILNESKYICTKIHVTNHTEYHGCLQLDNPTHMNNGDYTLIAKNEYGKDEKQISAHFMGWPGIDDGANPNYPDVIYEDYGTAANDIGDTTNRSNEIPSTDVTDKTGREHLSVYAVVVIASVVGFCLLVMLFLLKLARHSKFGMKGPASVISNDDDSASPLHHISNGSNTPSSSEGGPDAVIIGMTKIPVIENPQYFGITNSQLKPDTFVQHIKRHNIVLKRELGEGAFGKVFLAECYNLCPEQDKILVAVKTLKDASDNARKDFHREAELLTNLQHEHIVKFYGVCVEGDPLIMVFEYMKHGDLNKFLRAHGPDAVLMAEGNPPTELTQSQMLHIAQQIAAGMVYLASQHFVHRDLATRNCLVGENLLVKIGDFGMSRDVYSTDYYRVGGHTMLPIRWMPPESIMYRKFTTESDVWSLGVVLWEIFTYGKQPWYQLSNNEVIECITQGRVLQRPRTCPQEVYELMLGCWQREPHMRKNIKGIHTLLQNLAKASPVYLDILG
- assay: Inhibition of BDNF-stimulated TrkB phosphorylation in human U2OS cells by beta-galactosidase reporter gene based PathHunter profiling assay
- Format: cell-based
pIC50: −log10 of the molar value.
readout: pIC50

Name the recorded pIC50 of the compound listed here: "O=C(O)c1ccc(Nc2cc(N3CCN(C4CCCCC4)CC3)c3noc4c3c2C(=O)c2ccccc2-4)cc1"
< 5.00

====

- target-or-system: High affinity nerve growth factor receptor (Homo sapiens, UniProt P04629)
- Sequence (P04629 whole entry, the tested form may be a part): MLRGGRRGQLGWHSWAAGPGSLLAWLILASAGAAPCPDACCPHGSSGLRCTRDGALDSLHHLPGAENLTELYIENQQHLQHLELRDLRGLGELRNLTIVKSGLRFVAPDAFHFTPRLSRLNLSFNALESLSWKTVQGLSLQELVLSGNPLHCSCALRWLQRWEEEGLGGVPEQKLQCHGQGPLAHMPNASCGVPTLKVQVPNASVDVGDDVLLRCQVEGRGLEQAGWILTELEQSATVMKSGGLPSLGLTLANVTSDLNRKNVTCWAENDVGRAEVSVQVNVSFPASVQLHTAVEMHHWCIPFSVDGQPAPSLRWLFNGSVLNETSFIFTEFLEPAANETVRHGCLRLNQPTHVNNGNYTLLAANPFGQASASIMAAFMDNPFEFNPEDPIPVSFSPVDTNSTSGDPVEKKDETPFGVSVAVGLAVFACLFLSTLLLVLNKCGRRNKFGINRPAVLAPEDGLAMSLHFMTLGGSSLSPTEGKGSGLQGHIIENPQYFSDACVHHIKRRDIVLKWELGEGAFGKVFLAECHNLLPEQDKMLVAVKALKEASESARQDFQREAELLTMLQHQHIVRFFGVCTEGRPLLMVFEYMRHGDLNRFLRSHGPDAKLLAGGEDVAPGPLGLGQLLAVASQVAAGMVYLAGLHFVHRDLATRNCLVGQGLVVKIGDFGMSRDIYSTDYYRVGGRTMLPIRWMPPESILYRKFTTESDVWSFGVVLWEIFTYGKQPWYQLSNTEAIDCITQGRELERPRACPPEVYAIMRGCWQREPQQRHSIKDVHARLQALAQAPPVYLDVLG
- assay: Inhibition of N-terminal GST tagged human TrkA cytoplasmic domain (436 to 790 amino acids) pre-incubated for 15 mins before peptide substrate addition for 180 mins by fluorescence based assay
readout: IC50 (nM)
Answers are plain numbers, in nM.

Identify measured IC50 obtained with High affinity nerve growth factor receptor (Homo sapiens, UniProt P04629) for "COc1ccc(COc2ccc(Cn3c(N)nc4cc(-c5cnn(C)c5)ccc43)cc2OC)cc1" .
0.3
